B1: Protein S100-G, residues 1 to 79; numbered along this chain, P02633 (parent)
chain: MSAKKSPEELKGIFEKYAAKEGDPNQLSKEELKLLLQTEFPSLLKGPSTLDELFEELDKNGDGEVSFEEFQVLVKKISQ

variants of: B1; assay: abundance fitness (aPCA) (normalised: wild type 0, dead -1); higher = more abundant; growth selection in yeast, the domain comes from the species named; details: Bos taurus
Would you mind labelling by abundance fitness? At or over -0.06 is Criterion met, under is Criterion not met.

variant_string=K29N class_label="Criterion met"
variant_string=F67M class_label="Criterion not met"
variant_string=F70M class_label="Criterion not met"
variant_string=K59A class_label="Criterion met"
variant_string=E69R class_label="Criterion met"
variant_string=K4E class_label="Criterion not met"
variant_string=D23M class_label="Criterion not met"
variant_string=K11I class_label="Criterion met"
variant_string=T38Y class_label="Criterion not met"
variant_string=K59C class_label="Criterion met"
variant_string=K45C class_label="Criterion not met"

# credit: the Human Domainome abundance scans (Beltran et al. 2025)
